# measurement target: Prostaglandin D2 receptor 2 (Homo sapiens)
# experiment: Antagonist activity at human CRTH2 receptor assessed as inhibition of PGD2-induced signaling by inositol-phosphate assay
assay metric: IC50

input: Tell me IC50 of O=C(O)Cn1cc(CCN(Cc2ccccc2)S(=O)(=O)c2ccc(F)cc2)c2ccccc21 when tested on Prostaglandin D2 receptor 2 (Homo sapiens).
output: 3.98 nM

* * *

# measurement target: Prostaglandin D2 receptor 2 (Homo sapiens)
# Sequence (Q9Y5Y4 whole entry): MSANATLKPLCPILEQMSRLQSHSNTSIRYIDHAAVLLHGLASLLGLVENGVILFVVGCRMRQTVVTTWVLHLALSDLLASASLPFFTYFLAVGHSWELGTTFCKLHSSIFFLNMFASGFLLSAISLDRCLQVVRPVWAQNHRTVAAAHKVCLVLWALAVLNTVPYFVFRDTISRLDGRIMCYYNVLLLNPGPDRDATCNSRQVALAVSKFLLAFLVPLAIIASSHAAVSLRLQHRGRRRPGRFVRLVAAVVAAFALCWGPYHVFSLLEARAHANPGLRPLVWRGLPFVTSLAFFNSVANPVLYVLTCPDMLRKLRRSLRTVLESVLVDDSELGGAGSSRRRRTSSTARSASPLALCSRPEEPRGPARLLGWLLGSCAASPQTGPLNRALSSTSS
# experiment: Displacement of [3H]PGD2 from human CRTH2 receptor
assay metric: Ki (nM)
I only need the number, in nM, no unit after it.

input: Please look at this compound and report its Ki: O=C(O)Cn1cc(CCN(Cc2ccccc2)S(=O)(=O)c2ccc(F)cc2)c2ccccc21
output: 0.631
